# EXPERIMENTAL DETAILS: Human pregnane X receptor (PXR) small molecule agonists, qHTS cell viability counter screen (AID 1346977); further: nearly all actives have a fitted effect of over 50% in size
# MEASUREMENT PARAMETERS: PXR-Luc HepG2 viability, CellTiter-Fluor, 24 h; series mostly up to 92.4 µM
Records with an inconclusive call do not appear. Activity calls are given as the source filed them. The call rests on the fitted dose curve; in most records, active means well fitted cell-killing curve with a large enough effect in the repeat runs; inconclusive means weak or mixed curves, or effect the other way; inactive means flat fitted curve, though single readings scatter.
Respond using exactly one of the listed classes: 1.0 = active, 0.0 = inactive

Cc1cc(C)c(C)c(O)c1 | 0.0
Nc1ncnc2c1ncn2[C@@H]1O[C@H](CO)[C@@H](O)[C@H]1O | 0.0
CC(C)C[C@H](NC(=O)[C@H](Cc1ccccc1)NC(=O)c1cnccn1)B(O)O | 1.0
CCCCCCCCCCCCCCCCN | 0.0
O=C(OC1C[C@H]2CC[C@@H](C1)[N+]21CCCC1)C(O)(c1ccccc1)c1ccccc1 (stereo partly specified) | 0.0

Lab note: next molecule to report on.
stdin: // return assay outcome for CC1(C)C(=O)NC(=O)N1CO
stdout: 0.0
